target_or_system: HLA-A*02:01
test_summary: IEDB peptide-MHC binding, purified MHC/direct/fluorescence; filed as Kd, often an IC50 or EC50 that approximates it; bounds were set here for any values at or beyond the usual limits of such assays
condition: source organism: Sudan ebolavirus - Maleo (1979)

{"macromolecule_sequence": "KLINTLFHA", "target_or_system": "HLA-A*02:01", "Kd, nM": 4.7}

====

target_or_system: HLA-A*24:02
test_summary: IEDB peptide-MHC binding, purified MHC/competitive/radioactivity; filed as Kd, often an IC50 or EC50 that approximates it; bounds were set here for any values at or beyond the usual limits of such assays
condition: source organism: Dengue virus 1 Singapore/S275/1990

{"macromolecule_sequence": "KQIQRVETW", "unit_abbrev": "µM", "Kd": 8.58}
